# assayed system: recombinant human DPP9 (rhDPP9) (Homo sapiens, UniProt Q86TI2)
# Sequence (Q86TI2 whole entry): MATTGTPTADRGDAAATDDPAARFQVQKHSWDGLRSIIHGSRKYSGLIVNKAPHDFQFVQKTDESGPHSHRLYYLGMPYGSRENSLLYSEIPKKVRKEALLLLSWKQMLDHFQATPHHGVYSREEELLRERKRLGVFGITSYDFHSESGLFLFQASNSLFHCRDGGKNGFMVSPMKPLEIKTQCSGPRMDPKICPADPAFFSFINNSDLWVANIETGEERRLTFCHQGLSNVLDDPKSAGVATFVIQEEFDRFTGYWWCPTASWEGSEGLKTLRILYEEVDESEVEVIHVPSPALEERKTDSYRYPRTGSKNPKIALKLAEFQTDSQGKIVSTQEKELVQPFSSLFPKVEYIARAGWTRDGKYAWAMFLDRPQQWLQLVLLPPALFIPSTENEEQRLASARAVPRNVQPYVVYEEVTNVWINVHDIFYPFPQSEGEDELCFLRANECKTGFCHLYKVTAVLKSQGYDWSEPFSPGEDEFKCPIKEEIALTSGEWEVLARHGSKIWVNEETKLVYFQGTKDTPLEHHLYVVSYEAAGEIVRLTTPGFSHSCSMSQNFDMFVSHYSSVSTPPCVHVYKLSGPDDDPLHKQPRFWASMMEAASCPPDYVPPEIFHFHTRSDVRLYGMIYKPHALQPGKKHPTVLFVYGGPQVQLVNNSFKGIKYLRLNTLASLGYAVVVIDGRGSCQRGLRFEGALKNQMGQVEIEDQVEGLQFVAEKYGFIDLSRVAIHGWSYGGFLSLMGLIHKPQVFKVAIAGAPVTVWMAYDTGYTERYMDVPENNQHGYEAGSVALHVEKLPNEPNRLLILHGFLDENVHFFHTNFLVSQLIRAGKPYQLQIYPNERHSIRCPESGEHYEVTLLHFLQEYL
# test: DPP9 enzymatic activity assay
# assay setup: H-Gly-Pro-AMC substrate
quantity: IC50

N#C[C@@H]1CC(F)(F)CN1C(=O)CNC(=O)c1ccncc1N1CCCCC1 [Compound 42] = > 10 µM
N#C[C@@H]1CC(F)(F)CN1C(=O)CNC(=O)c1c[nH]c(=O)cc1-c1ccc(F)cc1 [Compound 109] = 1 to 10 µM
N#C[C@@H]1CC(F)(F)CN1C(=O)CNC(=O)c1ccncc1/C=C/c1ccccc1 [Compound 124] = 1 to 10 µM

Write down the reported IC50 of N#C[C@@H]1CC(F)(F)CN1C(=O)CNC(=O)c1ccncc1Sc1ccccc1 [Compound 115] , test system: recombinant human DPP9 (rhDPP9) (Homo sapiens, UniProt Q86TI2). > 10 µM

====

# assayed system: recombinant human FAPα (rhFAPα) (Homo sapiens, UniProt Q12884)
# Construct: purchased R&S system (so in the source)
# Sequence (Q12884 1-760): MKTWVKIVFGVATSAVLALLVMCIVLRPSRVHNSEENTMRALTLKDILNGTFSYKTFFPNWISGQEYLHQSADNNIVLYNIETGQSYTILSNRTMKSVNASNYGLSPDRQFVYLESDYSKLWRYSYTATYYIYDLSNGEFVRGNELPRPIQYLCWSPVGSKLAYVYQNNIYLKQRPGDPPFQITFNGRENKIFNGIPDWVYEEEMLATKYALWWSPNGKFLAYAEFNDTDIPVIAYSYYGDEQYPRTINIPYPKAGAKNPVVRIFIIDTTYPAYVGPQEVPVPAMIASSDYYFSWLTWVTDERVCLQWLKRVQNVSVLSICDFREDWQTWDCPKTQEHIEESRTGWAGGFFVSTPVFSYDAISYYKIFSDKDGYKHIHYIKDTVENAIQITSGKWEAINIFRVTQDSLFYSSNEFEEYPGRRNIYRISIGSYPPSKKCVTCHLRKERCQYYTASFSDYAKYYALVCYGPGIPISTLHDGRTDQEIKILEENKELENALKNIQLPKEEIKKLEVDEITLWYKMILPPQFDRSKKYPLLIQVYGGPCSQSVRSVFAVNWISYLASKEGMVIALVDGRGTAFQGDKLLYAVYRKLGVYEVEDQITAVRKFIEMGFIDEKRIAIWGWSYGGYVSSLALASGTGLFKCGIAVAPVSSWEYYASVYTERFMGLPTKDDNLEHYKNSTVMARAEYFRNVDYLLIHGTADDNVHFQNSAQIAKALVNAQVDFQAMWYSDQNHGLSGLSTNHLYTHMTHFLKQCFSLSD
# test: FAPα enzymatic exopeptidase (dipeptidase) activity assay
# Type: biochemical
# assay setup: Table 3; exopeptidase; read-out: rhFAPα (exo IC50)
In this section we review reported IC50 values for a set of compounds.

N#C[C@@H]1CC(F)(F)CN1C(=O)CNC(=O)c1ccncc1-c1cc(Cl)ccc1F = < 1000 nM
N#C[C@@H]1CC(F)(F)CN1C(=O)CNC(=O)c1ccncc1NC1CCNCC1 = < 1000 nM

Requested read-out: IC50. Entry: N#C[C@@H]1CC(F)(F)CN1C(=O)CNC(=O)C1=NNC(=O)C2C=CC=CC12 (stereo partly drawn) < 1000 nM

====

# assayed system: recombinant human DPPIV (rhDPPIV) (Homo sapiens)
# Sequence (P27487 whole entry): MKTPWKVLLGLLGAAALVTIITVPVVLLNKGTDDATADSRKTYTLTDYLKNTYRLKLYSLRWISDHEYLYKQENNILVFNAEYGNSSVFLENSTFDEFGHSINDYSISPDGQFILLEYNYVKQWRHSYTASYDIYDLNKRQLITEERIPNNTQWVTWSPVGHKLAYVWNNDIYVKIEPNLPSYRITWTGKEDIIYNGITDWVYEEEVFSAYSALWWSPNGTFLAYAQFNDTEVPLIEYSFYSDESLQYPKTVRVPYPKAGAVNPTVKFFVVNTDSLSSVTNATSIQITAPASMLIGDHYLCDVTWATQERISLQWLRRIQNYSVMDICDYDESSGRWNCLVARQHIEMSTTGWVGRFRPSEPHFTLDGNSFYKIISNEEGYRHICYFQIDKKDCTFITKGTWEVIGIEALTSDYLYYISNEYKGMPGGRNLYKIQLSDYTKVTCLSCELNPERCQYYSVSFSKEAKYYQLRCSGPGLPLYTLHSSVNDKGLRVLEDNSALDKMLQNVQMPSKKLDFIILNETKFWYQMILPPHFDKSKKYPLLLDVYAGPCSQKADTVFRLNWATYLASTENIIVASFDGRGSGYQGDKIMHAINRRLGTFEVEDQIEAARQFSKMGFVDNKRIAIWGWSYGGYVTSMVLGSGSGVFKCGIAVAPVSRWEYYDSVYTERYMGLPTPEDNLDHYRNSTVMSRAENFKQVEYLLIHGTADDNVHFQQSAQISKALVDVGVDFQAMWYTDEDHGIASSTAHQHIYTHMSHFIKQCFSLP
# test: DPPIV enzymatic activity assay
# assay setup: H-Gly-Pro-pNA substrate
pIC50: −log10 of the molar value.
quantity: pIC50

Check out these entries, answers already filled in.
N#C[C@@H]1CC(F)(F)CN1C(=O)CNC(=O)c1ccncc1Nc1cccnc1 = < 5.00
N#C[C@@H]1CC(F)(F)CN1C(=O)CNC(=O)c1c[nH]c(=O)c2ccc(F)cc12 = 5.00 to 6.00
Cc1noc(C)c1-c1cnccc1C(=O)NCC(=O)N1CC(F)(F)C[C@H]1C#N = < 5.00
N#C[C@@H]1CC(F)(F)CN1C(=O)CNC(=O)c1c[nH]c(=O)cc1-c1ccccc1 = 5.00 to 6.00
N#C[C@@H]1CC(F)(F)CN1C(=O)CNC(=O)c1ccncc1Nc1ccc(F)cc1 [Compound 114, 2,2,2-trifluoroacetate] = < 5.00

Shift focus to the following entry.
Write down the reported pIC50 of N#C[C@@H]1CC(F)(F)CN1C(=O)CNC(=O)c1c[nH]c(=O)cc1-c1ccc(F)cc1 , test system: recombinant human DPPIV (rhDPPIV) (Homo sapiens). 5.00 to 6.00
